For each of the variants below, state its STK11 functional score.
B1: library; numbered along this chain (parent)
chain: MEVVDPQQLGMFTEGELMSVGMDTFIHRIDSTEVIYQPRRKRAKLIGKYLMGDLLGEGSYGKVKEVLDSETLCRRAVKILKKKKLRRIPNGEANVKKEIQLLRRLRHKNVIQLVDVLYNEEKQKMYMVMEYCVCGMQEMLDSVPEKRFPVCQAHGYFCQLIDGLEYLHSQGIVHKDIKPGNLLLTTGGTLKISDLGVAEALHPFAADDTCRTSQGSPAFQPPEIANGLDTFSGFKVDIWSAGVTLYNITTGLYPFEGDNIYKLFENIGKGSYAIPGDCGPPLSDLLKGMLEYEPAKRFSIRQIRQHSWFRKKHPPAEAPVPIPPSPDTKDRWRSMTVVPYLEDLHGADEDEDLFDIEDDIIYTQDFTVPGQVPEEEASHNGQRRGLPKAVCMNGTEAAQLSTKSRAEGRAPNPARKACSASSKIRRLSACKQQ

variants of: B1; assay: STK11 functional score (HeLa growth suppression), rescaled enrichment; synonymous median = 1, nonsense median = 0 (normalised score); details: with HeLa; variant type: missense
Answers are plain numbers.

Recorded STK11 functional score, per entry:
H168Y 0.357
K64L 1.54
V197R 1
S31G 1.57
T336N 0.774

For each entry beneath this line, provide reported STK11 functional score.
1. D359Y
2. K78Q

Response:
1.13
1.1

For each entry beneath this line, provide reported STK11 functional score.
1. P6I
2. A205F

Response:
[1.61, 1.35]

For each entry beneath this line, provide reported STK11 functional score.
1. D30A
2. P6V
3. I300V
4. E396M
5. T189I
6. K97S
7. E375N
8. I248C

Response:
[1.7, 1.5, 1.13, 1.47, 1.33, 0.724, 1.47, 1]
